Test Target: recombinant RfBGluc-1 β-glucosidase (Reticulitermes flavipes, UniProt D9ILU1)
Sequence (D9ILU1 18-495): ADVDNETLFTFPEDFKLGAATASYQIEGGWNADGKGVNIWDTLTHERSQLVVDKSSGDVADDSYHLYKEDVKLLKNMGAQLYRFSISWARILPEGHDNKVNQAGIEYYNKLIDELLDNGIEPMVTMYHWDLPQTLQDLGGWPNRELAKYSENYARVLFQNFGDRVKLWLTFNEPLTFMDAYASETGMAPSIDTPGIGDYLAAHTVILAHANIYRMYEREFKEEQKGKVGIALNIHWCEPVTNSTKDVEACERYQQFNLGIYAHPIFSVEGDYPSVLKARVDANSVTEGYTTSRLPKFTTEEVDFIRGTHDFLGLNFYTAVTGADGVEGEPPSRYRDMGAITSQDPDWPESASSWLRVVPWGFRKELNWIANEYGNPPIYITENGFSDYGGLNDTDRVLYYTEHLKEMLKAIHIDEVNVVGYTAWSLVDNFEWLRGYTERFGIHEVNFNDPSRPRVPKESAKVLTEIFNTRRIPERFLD
Experiment Notes: Activity of recombinant RfBGluc-1 towards synthetic nitrophenol substrates, kinetic microplate assay
Type: biochemical
Measurement Setup: percent activity rankings based on Vmax; pNP-βD-Glucopyranoside = 100
Reported Endpoint: Activity (%)

compound="O=[N+]([O-])c1ccc(O[C@@H]2O[C@H](CO)[C@H](O)[C@H](O)[C@H]2O)cc1 [pNP-βD-Galactopyranoside]" recorded_result=0
compound="O=[N+]([O-])c1ccc(O[C@@H]2O[C@H](CO)[C@@H](O[C@@H]3O[C@H](CO)[C@@H](O)[C@H](O)[C@H]3O)[C@H](O)[C@H]2O)cc1 [pNP-βD-Cellobioside, p-nitrophenyl-beta-D-cellobioside]" recorded_result=60
compound="O=[N+]([O-])c1ccc(O[C@@H]2OC[C@@H](O)[C@H](O)[C@H]2O)cc1 [pNP-βD-Xylopyranoside]" recorded_result=0

----------
Parameter Relative Activity (%): see the listing below.
Test Target: RfLacA (Reticulitermes flavipes, UniProt D0E8H0)
Sequence (D0E8H0 entry or part of it): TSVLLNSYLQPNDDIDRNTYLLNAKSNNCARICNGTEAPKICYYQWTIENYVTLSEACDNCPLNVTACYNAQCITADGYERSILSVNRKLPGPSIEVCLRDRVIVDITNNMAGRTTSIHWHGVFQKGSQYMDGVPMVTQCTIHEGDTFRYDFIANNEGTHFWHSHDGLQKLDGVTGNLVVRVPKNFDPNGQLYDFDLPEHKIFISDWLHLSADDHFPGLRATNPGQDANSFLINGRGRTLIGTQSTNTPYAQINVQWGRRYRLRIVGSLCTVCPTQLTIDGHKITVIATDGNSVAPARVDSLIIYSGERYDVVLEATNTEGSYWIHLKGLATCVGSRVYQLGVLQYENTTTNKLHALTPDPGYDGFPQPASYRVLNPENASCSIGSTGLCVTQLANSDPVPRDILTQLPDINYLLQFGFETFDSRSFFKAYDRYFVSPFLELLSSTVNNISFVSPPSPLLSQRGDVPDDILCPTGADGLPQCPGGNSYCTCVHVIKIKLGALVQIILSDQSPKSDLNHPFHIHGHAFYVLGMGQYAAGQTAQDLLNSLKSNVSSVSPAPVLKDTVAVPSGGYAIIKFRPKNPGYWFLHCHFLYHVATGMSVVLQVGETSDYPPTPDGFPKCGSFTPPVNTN
Experiment Notes: RfLacA substrate specificity and kinetic parameters
Reported Endpoint: Relative Activity (%)

compound=CC(=O)NCCc1ccc(O)c(O)c1 recorded_result=9.08
compound=Oc1ccccc1O recorded_result=27.65
compound=COc1cc(/C=C/C(=O)O)cc(OC)c1O recorded_result=40.40
compound="Oc1ccc(O)cc1 [Hydroquinone]" recorded_result=100.00

----------
Test Target: recombinant RfBGluc-1 β-glucosidase (Reticulitermes flavipes)
Experiment Notes: Activity of recombinant RfBGluc-1 towards synthetic nitrophenol substrates, kinetic microplate assay
Type: biochemical
Measurement Setup: percent activity rankings based on Vmax; pNP-βD-Glucopyranoside = 100
Outcome: 1.0 for Activity (%) of at least 60%; 0.0 for anything lower.

compound="O=[N+]([O-])c1ccc(O[C@@H]2O[C@H](CO)[C@@H](O[C@@H]3O[C@H](CO)[C@@H](O[C@@H]4O[C@H](CO)[C@@H](O)[C@H](O)[C@H]4O)[C@H](O)[C@H]3O)[C@H](O)[C@H]2O)cc1 [pNP-βD-Cellotrioside, p-nitrophenyl-beta-D-cellotrioside]" group=1.0
compound="O=[N+]([O-])c1ccc(O[C@H]2O[C@H](CO)[C@H](O)[C@H](O)[C@H]2O)cc1 [pNP-αD-Galactopyranoside]" group=0.0
compound="O=[N+]([O-])c1ccc(O[C@H]2OC[C@H](O)[C@H](O)[C@H]2O)cc1 [pNP-βL-Arabinopyranoside]" group=0.0
compound="O=[N+]([O-])c1cccc(O[C@H]2O[C@H](CO)[C@H](O)[C@H](O)[C@H]2O)c1 [mNP-αD-Galactopyranoside]" group=0.0
compound="O=[N+]([O-])c1ccccc1O[C@@H]1O[C@H](CO)[C@@H](O)[C@H](O)[C@@H]1O [oNP-βD-Mannopyranoside]" group=0.0
compound="O=[N+]([O-])c1ccc(O[C@@H]2O[C@H](CO)[C@@H](O)[C@H](O)[C@H]2O)cc1 [pNP-βD-Glucopyranoside, p-nitrophenyl-beta-D-glucopyranoside]" group=1.0
compound="O=[N+]([O-])c1ccccc1O[C@@H]1O[C@H](CO)[C@@H](O)[C@H](O)[C@H]1O [oNP-βD-Glucopyranoside]" group=0.0
compound="O=[N+]([O-])c1ccccc1O[C@@H]1OC[C@@H](O)[C@H](O)[C@H]1O [oNP-βD-Xylopyranoside]" group=0.0
compound="O=[N+]([O-])c1ccc(O[C@@H]2O[C@H](CO)[C@@H](O[C@@H]3O[C@H](CO)[C@@H](O[C@@H]4O[C@H](CO)[C@@H](O[C@@H]5O[C@H](CO)[C@@H](O)[C@H](O)[C@H]5O)[C@H](O)[C@H]4O)[C@H](O)[C@H]3O)[C@H](O)[C@H]2O)cc1 [pNP-βD-Cellotetraoside, p-nitrophenyl-beta-D-cellotetraoside]" group=1.0
compound="O=C(O)[C@H]1O[C@@H](Oc2ccc([N+](=O)[O-])cc2)[C@H](O)[C@@H](O)[C@@H]1O [pNP-βD-Glucuronide]" group=0.0
compound="C[C@H]1O[C@@H](Oc2ccc([N+](=O)[O-])cc2)[C@H](O)[C@@H](O)[C@H]1O [pNP-βD-Fucopyranoside]" group=0.0

Cited source: patent US8445240B2
